Listed here are compounds together with their documented Plant response rating (scale 0 to 100), Velvetleaf.
- Test system: velvetleaf (Abutilon theophrasti)
- Measurement Description: Test D pre-/postemergence plant response
- Type: in vivo
- Condition: Postemergence, 16 g ai/ha

Sample records with Plant response rating (scale 0 to 100), Velvetleaf:
[
  {
    "Compound": "Fc1cccc(Oc2ncc(Cl)cn2)c1-c1cc(C(F)(F)F)no1 [Compound 228]",
    "Tested On": "velvetleaf (Abutilon theophrasti)",
    "Result": 35
  },
  {
    "Compound": "FCc1cc(-c2c(Br)cccc2Oc2ncc(Cl)cn2)no1 [Compound 191]",
    "Tested On": "velvetleaf (Abutilon theophrasti)",
    "Result": 15
  },
  {
    "Compound": "Fc1ccc(Oc2ncc(Cl)cn2)c(-c2cc(C(F)(Cl)Cl)on2)c1 [Compound 221]",
    "Tested On": "velvetleaf (Abutilon theophrasti)",
    "Result": 70
  }
]

Consider now this further compound.
Which value of Plant response rating (scale 0 to 100), Velvetleaf has been reported for Clc1cnc(Oc2ccccc2-c2cc(Cl)sn2)nc1 [Compound 192] in the records? 20
